Target: Factor X (FX), P00742
Sequence (P00742 whole entry, looked up): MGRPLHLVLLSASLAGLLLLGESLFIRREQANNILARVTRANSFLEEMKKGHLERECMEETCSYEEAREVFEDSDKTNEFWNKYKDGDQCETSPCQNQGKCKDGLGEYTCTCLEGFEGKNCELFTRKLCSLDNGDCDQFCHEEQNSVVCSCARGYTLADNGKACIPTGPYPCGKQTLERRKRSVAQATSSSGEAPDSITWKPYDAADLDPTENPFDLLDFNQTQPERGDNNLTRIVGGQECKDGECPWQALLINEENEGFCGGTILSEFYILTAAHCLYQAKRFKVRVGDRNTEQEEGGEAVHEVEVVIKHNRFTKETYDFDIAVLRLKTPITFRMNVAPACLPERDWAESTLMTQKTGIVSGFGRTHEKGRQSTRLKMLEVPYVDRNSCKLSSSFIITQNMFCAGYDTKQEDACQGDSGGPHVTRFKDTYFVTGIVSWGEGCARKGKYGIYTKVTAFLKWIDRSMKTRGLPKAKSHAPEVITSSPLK
Give measured kcat of FX activation by FIXa in the Xase complex (FVIIIa, PC/PS vesicles, Ca2+) for each item. Keep answers brief.
Be sure to follow the number with its unit.

{"protein": "FIXa-Y155F/K228N/I251S/R318Y/R338E/R403E/E410N (protein) chain 1: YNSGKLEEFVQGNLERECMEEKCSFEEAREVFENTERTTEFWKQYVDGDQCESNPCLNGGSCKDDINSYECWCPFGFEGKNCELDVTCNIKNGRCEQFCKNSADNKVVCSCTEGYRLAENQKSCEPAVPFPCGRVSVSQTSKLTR chain 2: VVGGEDAKPGQFPWQVVLNGKVDAFCGGSIVNEKWIVTAAHCVETGVNITVVAGEHNIEETEHTEQKRNVSRIIPHHNYNAAINKYNHDIALLELDEPLVLNSYVTPICIADKEYTNIFLKFGSGYVSGWGRVFHKGYSALVLQYLRVPLVDRATCLESTKFTIYNNMFCAGFHEGGRDSCQGDSGGPHVTEVEGTSFLTGIISWGEECAMKGKYGIYTKVSEYVNWIKNKTKLT", "experimental_result": "5.3 s⁻¹"}

Attention now shifts to the item below.
GET /values?readout=kcat of FX activation by FIXa in the Xase complex (FVIIIa, PC/PS vesicles, Ca2+)&item= FIXa-Y155F/K247N/N249S/R318Y/R338E/T343R/R403E/E410N (protein) chain 1: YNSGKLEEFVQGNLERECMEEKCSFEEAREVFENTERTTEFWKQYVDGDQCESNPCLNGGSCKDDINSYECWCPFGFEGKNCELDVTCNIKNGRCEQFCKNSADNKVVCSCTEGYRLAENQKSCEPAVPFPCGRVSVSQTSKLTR chain 2: VVGGEDAKPGQFPWQVVLNGKVDAFCGGSIVNEKWIVTAAHCVETGVKITVVAGEHNIEETEHTEQNRSVIRIIPHHNYNAAINKYNHDIALLELDEPLVLNSYVTPICIADKEYTNIFLKFGSGYVSGWGRVFHKGYSALVLQYLRVPLVDRATCLESTKFRIYNNMFCAGFHEGGRDSCQGDSGGPHVTEVEGTSFLTGIISWGEECAMKGKYGIYTKVSEYVNWIKNKTKLT
9.7 s⁻¹

Provenance of the data: patent US20210230570
